The reader will find reported protein stability index values listed item by item below.
B1: ANKRD17 (parent)
chain: EMVRFLLEAGADQEHKTDEMHTAL

variants of: B1; test: protein stability index of a GFP-peptide fusion (GPS, HEK-293T) (PSI 1-6); higher = more stable; conditions: c terminus: a fixed tail appended;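 further: lentivirally expressed fusions sorted by FACS into six bins by GFP to DsRed ratio, PSI derived from sequencing read proportions per bin multiplied by bin number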

VARIANT CODE | protein stability index
A23M | 2.7
V3E | 5.24
K16P | 2.45
Q13E | 2.79
L6E | 5.28
Q13I | 2.36
L24F | 2.34
E8R | 2.03
M2R | 4.21
R4E | 3.47
K16M | 3.06
L7R | 4.13
L6V | 3.51
D18P | 2.35
E8T | 2.63
T22H | 2.39
H15V | 2.69
F5R | 3.77
F5M | 2.87
A11T | 3.53
Q13K | 2.92
Q13H | 2.46
